Biological target: T1, NUCB1 ΔZ (Homo sapiens, UniProt Q02818 31-320)
T1 sequence: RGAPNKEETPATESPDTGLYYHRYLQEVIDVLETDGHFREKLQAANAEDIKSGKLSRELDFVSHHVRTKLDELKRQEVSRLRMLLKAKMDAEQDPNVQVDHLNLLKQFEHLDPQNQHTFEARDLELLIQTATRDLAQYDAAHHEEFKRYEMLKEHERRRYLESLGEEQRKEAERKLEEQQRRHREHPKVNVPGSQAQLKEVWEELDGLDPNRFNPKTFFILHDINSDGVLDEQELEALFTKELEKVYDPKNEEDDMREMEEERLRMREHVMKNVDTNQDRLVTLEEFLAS
Test: SPR; SPR: 50 mM Tris-HCl pH 8.0, 200 mM NaCl, 0.1% Tween-20, with or without 2 mM CaCl2, 25 °C; 5'-biotinylated RNA immobilized, NUCB1 as analyte, 1:1 model
Settings: protein: recombinant; tags: N-terminal His6; label: 5'-biotin

>  <binder>
GUGGUCAGUCGAGUGGUAACACUGUCUGGUAACGAUGU (ssRNA) [miR-200a-3p]

>  <Kd>
0.3 nM

$$$$
